assay: Tissue concentrations of vinorelbine and deacetylvinorelbine 4 h after i.v. vinorelbine in CES2-modified mice; type: in vivo, mouse; details: male, mouse, small intestine contents, intravenous, 10 mg/kg, male wild-type mice, i.v. vinorelbine 10 mg/kg, read-out: CSIC (small intestine contents concentration)
REPORTED_METRIC: concentration at 4 h (ng/g)
One number for each entry, in ng/g.

Note concentration at 4 h for the molecule shown: CCC1=C[C@@H]2CN(C1)Cc1c([nH]c3ccccc13)[C@@](C(=O)OC)(c1cc3c(cc1OC)N(C)[C@H]1[C@@](O)(C(=O)OC)[C@H](OC(C)=O)[C@]4(CC)C=CCN5CC[C@]31[C@@H]54)C2 [Vinorelbine, reference compound]
27700

====

What Colon concentration ratio (metabolite/capecitabine) was measured for each of the following?
test: Tissue concentrations of capecitabine and its metabolites 2 h after oral capecitabine in CES2-modified mice; format: in vivo, mouse; settings: female Ces2^–/–A mice, oral capecitabine 500 mg/kg
Give bare numbers.

The cases that follow already have their Colon concentration ratio (metabolite/capecitabine) on record.
C[C@H]1O[C@@H](n2cc(F)c(N)nc2=O)[C@H](O)[C@@H]1O [5’-DFCR, 5’-deoxy-5-fluorocytidine]
3.2
NCC(F)C(=O)O (stereo not shown) [FBAL]
0.24
C[C@H]1O[C@@H](n2cc(F)c(=O)[nH]c2=O)[C@H](O)[C@@H]1O [5’-DFUR]
0.42

Consider now this further compound.
Note Colon concentration ratio (metabolite/capecitabine) for the compound shown: O=c1[nH]cc(F)c(=O)[nH]1 [5-FU, 5-fluorouracil, reference compound]
0.17

====

Experiment: Tissue concentrations of vinorelbine and deacetylvinorelbine 4 h after oral vinorelbine in CES2-modified mice
Assay type: in vivo, mouse
Details: male, mouse, small intestine tissue, oral, 10 mg/kg, male Ces2^–/–V mice, oral vinorelbine 10 mg/kg, read-out: CSI (small intestine tissue concentration)
Experimental: For capecitabine 2-h experiments, 6–7 female mice received oral capecitabine (500 mg/kg, 10 μL/g), and tail vein blood samples were collected at 0.125, 0.25, 0.5 and 1 h after drug administration. […] Concentrations of capecitabine (and its metabolites) and vinorelbine (and its metabolite) in mouse plasma samples and organ homogenates were determined using two independent validated high-performance liquid chromatography-tandem mass spectrometry assays. […]
REPORTED_METRIC: concentration at 4 h
Don't forget the unit after the number, please.

Note concentration at 4 h for the compound shown: CCC1=C[C@@H]2CN(C1)Cc1c([nH]c3ccccc13)[C@@](C(=O)OC)(c1cc3c(cc1OC)N(C)[C@H]1[C@@](O)(C(=O)OC)[C@H](OC(C)=O)[C@]4(CC)C=CCN5CC[C@]31[C@@H]54)C2 [Vinorelbine, reference compound]
15600 ng/g

====

What Cmax was measured for each of the following?
Assay: Plasma pharmacokinetics of capecitabine and its metabolites after oral capecitabine in CES2-modified mice
Type: in vivo, mouse
Settings: female, mouse, plasma, po, 500 mg/kg, female Ces2^–/–V mice; oral capecitabine 500 mg/kg; plasma; read-out: Cmax
Method: For capecitabine 2-h experiments, 6–7 female mice received oral capecitabine (500 mg/kg, 10 μL/g), and tail vein blood samples were collected at 0.125, 0.25, 0.5 and 1 h after drug administration. […] Concentrations of capecitabine (and its metabolites) and vinorelbine (and its metabolite) in mouse plasma samples and organ homogenates were determined using two independent validated high-performance liquid chromatography-tandem mass spectrometry assays. […]
Numbers only, in ng/mL.

The cases that follow already have their Cmax on record.
C[C@H]1O[C@@H](n2cc(F)c(N)nc2=O)[C@H](O)[C@@H]1O [5’-DFCR, 5’-deoxy-5-fluorocytidine]
80000
CCCCCOC(=O)Nc1nc(=O)n([C@@H]2O[C@H](C)[C@@H](O)[C@H]2O)cc1F [Capecitabine, reference compound]
23400

Consider now this further compound.
Note Cmax for the compound shown: O=c1[nH]cc(F)c(=O)[nH]1 [5-FU, 5-fluorouracil, reference compound]
156
